Details: 25 °C
endpoint: solubility (µM)
Quick note: give the figure in µM, leave out the unit.

Some solved entries appear below for comparison.
compound | solubility / µM
C#CCC1=C(C)C(OC(=O)C2C(C=C(C)C)C2(C)C)CC1=O (stereo not drawn) | 26.6
COCC(C)N(C(=O)CCl)c1c(C)csc1C (stereo not drawn) | 4350
Nc1c(Cl)c(Cl)nc(C(=O)O)c1Cl | 1780
CCOP(=O)(N=C1SCC(C)S1)OCC (stereo not drawn) | 212
CCOC(=O)C1(C)OC(=O)N(c2cc(Cl)cc(Cl)c2)C1=O (stereo not drawn) | 24.1
CC(Oc1ccc(Oc2ncc(Cl)cc2Cl)cc1)C(=O)N1CCCO1 (stereo not drawn) | 25.6
CCCCCOC(=O)COc1cc(N2C(=O)C3=C(CCCC3)C2=O)c(F)cc1Cl | 0.446
CN(C)NC(=O)CCC(=O)O | 624000
CC(C)(N=C(O)C(Br)C(C)(C)C)c1ccccc1 (stereo not drawn) | 11.3
CC(C)(C)C(O)/C(=C\c1ccc(Cl)cc1Cl)n1cncn1 (stereo not drawn) | 12.3

compound "CC1=C(C)S(=O)(=O)CCS1(=O)=O" , solubility observed: 21900

compound "COc1ccc(NC(=O)N(C)C)cc1Cl" , solubility observed: 2620

compound CCOP(=S)(NC(C)CC)Oc1cc(C)ccc1[N+](=O)[O-] (stereo not drawn) , solubility observed: 16.9

Origin of measurements: the OPERA property sets (Mansouri et al. 2018)
